biological target: AK2 (Homo sapiens)
REPORTED PROPERTY: Kd (nM)
// return numeric value only (unit: nM, not printed)

Lookup: Recorded Kd for COc1cc(Nc2ncc3c(n2)-c2ccc(Cl)cc2C(c2c(F)cccc2OC)=NC3)ccc1C(=O)O [Alisertib, alisertib, reference compound] with AK2 (Homo sapiens), please?
Found: 215

====

molecular target: AURORA-A/CEREBLON(TBD) complex (Homo sapiens, UniProt O14965+Q96SW2); test: Isothermal titration calorimetry, ternary complex
REPORTED PROPERTY: pKd
Scale for pKd: -log10 of concentration given in mol/L; no unit attached.

Lookup: // returns reported pKd for input COc1cc(Nc2ncc3c(n2)-c2ccc(Cl)cc2C(c2c(F)cccc2OC)=NC3)ccc1C(=O)NCCOCCOCCNC(=O)COc1cccc2c1C(=O)N(C1CCC(=O)NC1=O)C2=O (stereo not shown)
Found: 6.74

====

Biological target: AURORA-A (Homo sapiens, UniProt O14965)
Sequence (O14965 1-403): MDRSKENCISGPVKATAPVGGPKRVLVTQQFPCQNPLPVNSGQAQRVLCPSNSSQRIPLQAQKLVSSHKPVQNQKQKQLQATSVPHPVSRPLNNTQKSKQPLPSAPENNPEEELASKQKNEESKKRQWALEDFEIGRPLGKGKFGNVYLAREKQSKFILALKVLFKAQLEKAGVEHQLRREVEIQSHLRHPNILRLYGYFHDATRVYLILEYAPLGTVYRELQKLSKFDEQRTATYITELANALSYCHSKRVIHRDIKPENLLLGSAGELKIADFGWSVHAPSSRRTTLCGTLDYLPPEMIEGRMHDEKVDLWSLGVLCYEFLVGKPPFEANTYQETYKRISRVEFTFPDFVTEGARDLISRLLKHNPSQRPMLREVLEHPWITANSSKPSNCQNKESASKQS
Test: AURORA-A-NanoLuc target engagement assay
REPORTED PROPERTY: pEC50
Scale for pEC50: -log10 of concentration given in mol/L; no unit attached.

Lookup: Recorded pEC50 for COc1cc(Nc2ncc3c(n2)-c2ccc(Cl)cc2C(c2c(F)cccc2OC)=NC3)ccc1C(=O)NCCOCCOCCNC(=O)COc1cccc2c1C(=O)N(C1CCC(=O)NC1=O)C2=O (stereo not shown) with AURORA-A (Homo sapiens, UniProt O14965), please?
Found: 6.71

====

molecular target: AURORA-B (Homo sapiens); experiment: AURORA-B-NanoLuc target engagement assay; assay type: binding; details: AURORA-B EC50 (µM), HEK293 cells, energy transfer probe, 2 hours, mean ± s.e.m, n = 2
Sequence (Q96GD4 whole entry): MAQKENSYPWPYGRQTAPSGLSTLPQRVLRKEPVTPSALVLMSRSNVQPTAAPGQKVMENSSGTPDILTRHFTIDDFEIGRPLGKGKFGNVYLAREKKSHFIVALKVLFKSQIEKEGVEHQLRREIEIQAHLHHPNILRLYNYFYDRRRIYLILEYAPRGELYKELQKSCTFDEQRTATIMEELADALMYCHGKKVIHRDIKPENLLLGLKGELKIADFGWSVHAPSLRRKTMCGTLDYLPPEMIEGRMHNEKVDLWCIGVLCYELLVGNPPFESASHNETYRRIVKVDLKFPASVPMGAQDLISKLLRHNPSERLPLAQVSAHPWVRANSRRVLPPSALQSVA
REPORTED PROPERTY: EC50 (µM)
// return numeric value only (unit: µM, not printed)

Lookup: Recorded EC50 for COc1cc(Nc2ncc3c(n2)-c2ccc(Cl)cc2C(c2c(F)cccc2OC)=NC3)ccc1C(=O)NCCOCCOCCNC(=O)COc1cccc2c1C(=O)N(C1CCC(=O)NC1=O)C2=O (stereo not shown) with AURORA-B (Homo sapiens), please?
Found: 1.4

====

biological target: CEREBLON thalidomide-binding domain (TBD) (Homo sapiens, UniProt Q96SW2)
Sequence (Q96SW2 320-428): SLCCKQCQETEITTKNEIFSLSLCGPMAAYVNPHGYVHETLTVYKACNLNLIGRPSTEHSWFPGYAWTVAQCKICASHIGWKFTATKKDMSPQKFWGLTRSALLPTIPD
REPORTED PROPERTY: Kd (µM)
// return numeric value only (unit: µM, not printed)

Lookup: // returns reported Kd for input COc1cc(Nc2ncc3c(n2)-c2ccc(Cl)cc2C(c2c(F)cccc2OC)=NC3)ccc1C(=O)NCCOCCOCCNC(=O)COc1cccc2c1C(=O)N(C1CCC(=O)NC1=O)C2=O (stereo not shown) [JB170]
Found: 6.88

====

target: ACAD10 (Homo sapiens)
Sequence (Q6JQN1 whole entry): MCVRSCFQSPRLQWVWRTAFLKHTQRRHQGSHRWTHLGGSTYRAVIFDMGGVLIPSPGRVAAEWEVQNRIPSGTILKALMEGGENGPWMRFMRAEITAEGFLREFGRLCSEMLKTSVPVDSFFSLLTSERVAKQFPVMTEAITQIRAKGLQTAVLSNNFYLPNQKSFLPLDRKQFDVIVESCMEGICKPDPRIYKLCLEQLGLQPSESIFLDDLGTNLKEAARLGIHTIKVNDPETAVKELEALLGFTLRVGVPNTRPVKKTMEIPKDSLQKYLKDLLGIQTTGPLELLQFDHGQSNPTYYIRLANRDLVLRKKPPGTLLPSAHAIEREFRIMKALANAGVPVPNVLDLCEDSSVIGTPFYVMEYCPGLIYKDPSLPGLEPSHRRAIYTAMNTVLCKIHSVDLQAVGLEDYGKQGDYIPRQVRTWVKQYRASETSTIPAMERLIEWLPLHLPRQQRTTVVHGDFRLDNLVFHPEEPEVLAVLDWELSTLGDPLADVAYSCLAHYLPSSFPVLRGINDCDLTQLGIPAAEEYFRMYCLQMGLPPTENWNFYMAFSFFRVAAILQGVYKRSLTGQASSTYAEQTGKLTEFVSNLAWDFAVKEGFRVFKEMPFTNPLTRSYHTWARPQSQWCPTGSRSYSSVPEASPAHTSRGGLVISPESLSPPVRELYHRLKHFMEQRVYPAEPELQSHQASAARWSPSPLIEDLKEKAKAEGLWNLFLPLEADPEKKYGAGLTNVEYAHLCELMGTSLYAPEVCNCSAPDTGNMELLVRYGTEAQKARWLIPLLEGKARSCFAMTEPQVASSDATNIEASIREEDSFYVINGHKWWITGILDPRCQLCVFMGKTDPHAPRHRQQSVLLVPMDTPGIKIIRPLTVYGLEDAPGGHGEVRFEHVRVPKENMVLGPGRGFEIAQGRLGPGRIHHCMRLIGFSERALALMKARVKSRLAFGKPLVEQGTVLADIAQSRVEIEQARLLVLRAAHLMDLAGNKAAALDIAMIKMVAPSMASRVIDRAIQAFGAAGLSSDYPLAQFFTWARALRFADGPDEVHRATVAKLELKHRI
REPORTED PROPERTY: Kd (nM)
// return numeric value only (unit: nM, not printed)

Lookup: // returns reported Kd for input COc1cc(Nc2ncc3c(n2)-c2ccc(Cl)cc2C(c2c(F)cccc2OC)=NC3)ccc1C(=O)NCCOCCOCCNC(=O)COc1cccc2c1C(=O)N(C1CCC(=O)NC1=O)C2=O (stereo not shown) [JB170]
Found: 253
